target: HLA-A0201 (human)
method_summary: competition with 125I-labelled probe peptide, purified HLA
observation_type: Ki

Report Ki for CLVDYPYRL (modifications not checked) […] 437 nM
